Every entry's value here was drawn from ChEMBL document CHEMBL1811802.

Tested on: DU-145
Experimental details: Cytostatic activity against human DU145 cells after 5 days by SRB assay
Format: functional
Assay conditions: DU-145, 120 h
Could you please classify the records by GI50 using these ranges: low bin: < 100 nM; mid bin: ≥ 100 nM and < 300 nM; high bin: ≥ 300 nM

• Nc1ncnc2c1ccn2[C@@H]1O[C@H](CO)[C@@H](O)[C@H]1O = low bin
• CSc1ccc(-c2cn([C@@H]3O[C@H](CO)[C@@H](O)[C@H]3O)c3ncnc(N)c23)cc1 = high bin
• Nc1ncnc2c1c(-c1ccccc1)cn2[C@@H]1O[C@H](CO)[C@@H](O)[C@H]1O = high bin
• COc1ccc(-c2cn([C@@H]3O[C@H](CO)[C@@H](O)[C@H]3O)c3ncnc(N)c23)cc1 = mid bin
• Nc1ncnc2c1c(-c1ccoc1)cn2[C@@H]1O[C@H](CO)[C@@H](O)[C@H]1O = high bin
• Nc1ncnc2c1c(-c1cccc3ccccc13)cn2[C@@H]1O[C@H](CO)[C@@H](O)[C@H]1O = high bin
• Nc1ncnc2c1c(-c1ccco1)cn2[C@@H]1O[C@H](CO)[C@@H](O)[C@H]1O = low bin
• Nc1nc(Cl)nc2c1ncn2[C@@H]1O[C@H](CO)[C@@H](O)[C@@H]1F = mid bin
• Nc1ncnc2c1c(-c1cccs1)cn2[C@@H]1O[C@H](CO)[C@@H](O)[C@H]1O = mid bin
• Nc1ncnc2c1c(-c1ccc3ccccc3c1)cn2[C@@H]1O[C@H](CO)[C@@H](O)[C@H]1O = high bin

---

Tested on: NCI-H23
Experimental details: Cytostatic activity against human NCI-H23 cells after 5 days by SRB assay
Format: functional
Assay conditions: NCI-H23, 120 h
Attribute: GI50
Measured parameter: GI50 (nM)

• Nc1ncnc2c1c(-c1ccc[nH]1)cn2[C@@H]1O[C@H](CO)[C@@H](O)[C@H]1O = 333
• Nc1ncnc2c1c(-c1cn[nH]c1)cn2[C@@H]1O[C@H](CO)[C@@H](O)[C@H]1O = 144
• C#Cc1cn([C@@H]2O[C@H](CO)[C@@H](O)[C@H]2O)c2ncnc(N)c12 = 1
• Nc1ncnc2c1c(-c1cc[nH]n1)cn2[C@@H]1O[C@H](CO)[C@@H](O)[C@H]1O = 35

---

Test system: BV-173
Experimental details: Cytotoxicity against human BV173 cells after 3 days by MTT assay
Type: functional, cell-based
Assay conditions: BV-173, 72 h
pIC50: −log10 of the molar value.
Attribute: pIC50
Measured parameter: pIC50

• Nc1ncnc2c1c(-c1cn[nH]c1)cn2[C@@H]1O[C@H](CO)[C@@H](O)[C@H]1O = 5.01
• Nc1ncnc2c1c(-c1ccoc1)cn2[C@@H]1O[C@H](CO)[C@@H](O)[C@H]1O = 7.17
• Nc1ncnc2c1c(-c1cc[nH]c1)cn2[C@@H]1O[C@H](CO)[C@@H](O)[C@H]1O = 8.40
• Nc1ncnc2c1c(-c1ccsc1)cn2[C@@H]1O[C@H](CO)[C@@H](O)[C@H]1O = 7.54
• Nc1nc(Cl)nc2c1ncn2[C@H]1C[C@H](O)[C@@H](CO)O1 = 9.10
• Nc1ccn([C@@H]2O[C@H](CO)[C@@H](O)C2(F)F)c(=O)n1 = 9.00
• Nc1ncnc2c1c(-c1cccs1)cn2[C@@H]1O[C@H](CO)[C@@H](O)[C@H]1O = 6.98
